target: CDK2/Cyclin E (Homo sapiens, UniProt P24941); construct: made in house; host or cells: Sf21 (Spodoptera frugiperda) insect cells, baculovirus co-infection; the GST-Rb substrate was made in E. coli BL21 (DE3) pLysS; assay: in vitro kinase assay (Scintillation Proximity Assay), CDK2/Cyclin E, GST-Rb substrate; format: biochemical; conditions: CDK2/Cyclin E partially-purified enzyme, 0.2 μM ATP, read-out: CDK2 inhibitory activity IC50
observation.type: IC50 (nM)
# number only, unit nM dropped from output

Prompt: Recorded IC50 of CC(=O)N1CCC(Nc2nccc(-c3cnc(C)n3C(C)C)n2)CC1 [Example 29] , please.
Response: 95
